Here the recorded release (%) is given for each entry.
system: radiolabeled mAb-conjugates; test: In vitro Label release from radiolabeled mAb-TCO-chelate conjugates incubated with Cleaving Agents (SEC); settings: Label release from TCO derivative 1.8 on trastuzumab, ^111In; PBS, 37°C, 15-24 h
Give your result in % as a bare value.

compound="c1ccc(-c2nnc(-c3ccccn3)nn2)nc1 [Compound 2.14, reference compound]" measurement_kind="release (%)" reported_result=51.5
compound="Cc1nnc(-c2ncccn2)nn1 [Compound 2.19, reference compound]" measurement_kind="release (%)" reported_result=69.1
compound="CC(=O)N[C@H]1C(OCCOCCOCCn2cc(COCCC(=O)NCCCCC(NC(=O)CCOCc3cn(CCOCCOCCOC4O[C@H](CO)[C@H](O)[C@H](O)[C@H]4NC(C)=O)nn3)C(=O)NCc3ccc(-c4nncnn4)cc3)nn2)O[C@H](CO)[C@H](O)[C@@H]1O (stereo partly shown)" measurement_kind="release (%)" reported_result=67.2
compound=Cc1nnc(-c2nccc(CNC(=O)CCCC(=O)NC(CO)CO)n2)nn1 measurement_kind="release (%)" reported_result=67.2
compound=Oc1cccnc1-c1nnc(-c2ncccc2O)nn1 measurement_kind="release (%)" reported_result=86.4
compound="NCc1ccc(-c2nncnn2)cc1 [Compound 2.16, reference compound]" measurement_kind="release (%)" reported_result=64.5

For the next question, use this compound.
According to the records, this compound Oc1cnccc1-c1nnc(-c2ccncc2O)nn1 displays release (%) of 81.6

---

system: radiolabeled mAb-conjugates; experiment: In vitro Label release from radiolabeled mAb-TCO-chelate conjugates incubated with Cleaving Agents (SEC); conditions: Label release from TCO derivative 1.8 on trastuzumab, ^111In; PBS, 37°C, 15-24 h
Measurement kind: release (%)
Dear colleague, please return just the value in %, with no unit written.

molecule="Cc1nnc(C)nn1 [Compound 2.13, reference compound]" measurement_kind="release (%)" unit_label=% reported_result=71.4

So for O=C(CCCC(=O)Nc1cccnc1-c1nnc(-c2ncccc2NC(=O)CCCC(=O)NCCOCCOCCOCCOCCOCCOCCOCCOCCOCCO)nn1)NCCOCCOCCOCCOCCOCCOCCOCCOCCOCCO [Compound 2.8] , the logged release (%) turned out to be 79.9

---

Reported release (%) values are given for each entry in this list.
tested on: radiolabeled mAb-conjugates; assay: In vitro Label release from radiolabeled mAb-TCO-chelate conjugates incubated with Cleaving Agents (SEC); details: Label release from TCO derivative 1.17 on CC49, ^89Zr; PBS, 37°C, 15-24 h
Your answer should be a plain number; it is taken to be in %.

The examples below pair each entry with its known result.
compound=Oc1cccnc1-c1nnc(-c2ncccc2O)nn1 measurement_kind="release (%)" reported_result=88.0
compound=O=C(CCCC(=O)Nc1cnccc1-c1nnc(-c2ccncc2NC(=O)CCCC(=O)NCCOCCOCCOCCOCCOCCOCCOCCOCCOCCO)nn1)NCCOCCOCCOCCOCCOCCOCCOCCOCCOCCO measurement_kind="release (%)" reported_result=50.0
compound=Oc1cnccc1-c1nnc(-c2ccncc2O)nn1 measurement_kind="release (%)" reported_result=87.2

Now look at this entry.
Result for Cc1nnc(C)nn1 [Compound 2.13, reference compound] , tested on radiolabeled mAb-conjugates, release (%): 72.3

---

tested on: radiolabeled mAb-conjugates; assay: In vitro Label release from radiolabeled mAb-TCO-chelate conjugates incubated with Cleaving Agents (SEC); settings: Label release from TCO derivative 1.15 on CC49, ^89Zr; PBS, 37°C, 15-24 h
Measurement kind: release (%)
# number only, unit % dropped from output

Consider the worked cases shown below.
compound="Cc1nnc(C)nn1 [Compound 2.13, reference compound]" target_or_system="radiolabeled mAb-conjugates" reported_result=66.3
compound=Oc1cnccc1-c1nnc(-c2ccncc2O)nn1 target_or_system="radiolabeled mAb-conjugates" reported_result=65.8
compound=Oc1cccnc1-c1nnc(-c2ncccc2O)nn1 target_or_system="radiolabeled mAb-conjugates" reported_result=62.3

Record O=C(CCCC(=O)Nc1cnccc1-c1nnc(-c2ccncc2NC(=O)CCCC(=O)NCCOCCOCCOCCOCCOCCOCCOCCOCCOCCO)nn1)NCCOCCOCCOCCOCCOCCOCCOCCOCCOCCO , field release (%): 50.0
